Biological target: T1, factor XIIIa (Homo sapiens, UniProt P00488)
T1 sequence (P00488 39-732 limits assumed): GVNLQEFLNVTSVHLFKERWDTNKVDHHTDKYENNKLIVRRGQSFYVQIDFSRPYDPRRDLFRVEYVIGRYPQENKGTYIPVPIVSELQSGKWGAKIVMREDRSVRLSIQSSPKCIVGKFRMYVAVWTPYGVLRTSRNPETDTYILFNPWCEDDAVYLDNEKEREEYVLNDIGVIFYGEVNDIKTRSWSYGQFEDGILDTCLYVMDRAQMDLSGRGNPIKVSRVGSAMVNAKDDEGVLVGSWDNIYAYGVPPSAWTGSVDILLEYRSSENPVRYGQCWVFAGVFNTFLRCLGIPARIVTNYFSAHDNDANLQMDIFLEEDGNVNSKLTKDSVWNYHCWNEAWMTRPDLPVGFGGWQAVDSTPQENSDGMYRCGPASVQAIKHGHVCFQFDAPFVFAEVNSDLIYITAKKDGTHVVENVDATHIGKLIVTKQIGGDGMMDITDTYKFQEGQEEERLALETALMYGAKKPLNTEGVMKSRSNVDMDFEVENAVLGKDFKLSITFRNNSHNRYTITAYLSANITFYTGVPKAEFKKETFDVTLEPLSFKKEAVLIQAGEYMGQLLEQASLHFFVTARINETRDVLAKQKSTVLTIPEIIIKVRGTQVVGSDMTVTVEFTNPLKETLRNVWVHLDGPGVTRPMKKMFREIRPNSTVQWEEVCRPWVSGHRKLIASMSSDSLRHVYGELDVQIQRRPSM
Assay: biochemical
Format: biochemical
Settings: Table 2; final variant concentration 5.45 μM; recombinant tridegin polypeptide normalized to 100%

molecule: Y31A: modified tridegin, XnY mutation of SEQ ID No. 1, expressed in Escherichia coli (protein) MKLLPCKEWHQGIPNPRCWCGADLECAQDQACAFIPQCRPRSELIKPMDDIYQRPVEFPNLPLKPREE
unitAbbrev: %
Relative inhibitory effect (%): 69
//
molecule: F34A: modified tridegin, XnY mutation of SEQ ID No. 1, expressed in Escherichia coli (protein) MKLLPCKEWHQGIPNPRCWCGADLECAQDQYCAAIPQCRPRSELIKPMDDIYQRPVEFPNLPLKPREE
unitAbbrev: %
Relative inhibitory effect (%): 96
